tested on: Man(b1-4)GlcNAc
experiment: glycan array binding signal (z-score within array); higher = stronger binding
experimental context: glycan notation: IUPAC condensed, linker removed
Shown is part of a subset that was picked to be rich in the strongest signals.
Response key: Condition met means glycan array binding signal (z-score) >= 5; Condition not met means glycan array binding signal (z-score) < 5.

>  <binder>
SynCAM (Mus musculus) (protein) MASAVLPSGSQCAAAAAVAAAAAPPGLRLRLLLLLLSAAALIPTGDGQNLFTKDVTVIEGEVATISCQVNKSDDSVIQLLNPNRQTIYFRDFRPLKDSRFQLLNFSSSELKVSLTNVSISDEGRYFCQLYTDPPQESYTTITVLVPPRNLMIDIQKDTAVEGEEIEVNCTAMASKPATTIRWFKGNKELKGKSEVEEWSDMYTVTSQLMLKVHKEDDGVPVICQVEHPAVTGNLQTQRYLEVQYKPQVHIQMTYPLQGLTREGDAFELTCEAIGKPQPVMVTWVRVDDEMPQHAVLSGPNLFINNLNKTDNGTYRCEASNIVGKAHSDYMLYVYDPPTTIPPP

>  <class assignment>
Condition not met

$$$$
>  <binder>
Mermaid1 (Stilbonema majum) (protein) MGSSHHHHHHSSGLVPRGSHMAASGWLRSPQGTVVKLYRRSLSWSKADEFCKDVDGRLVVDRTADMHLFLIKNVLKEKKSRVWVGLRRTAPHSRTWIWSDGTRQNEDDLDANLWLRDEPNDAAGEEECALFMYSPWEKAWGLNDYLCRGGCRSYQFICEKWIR

>  <class assignment>
Condition met

$$$$
>  <binder>
EULS2 M1 (Oryza sativa) (protein) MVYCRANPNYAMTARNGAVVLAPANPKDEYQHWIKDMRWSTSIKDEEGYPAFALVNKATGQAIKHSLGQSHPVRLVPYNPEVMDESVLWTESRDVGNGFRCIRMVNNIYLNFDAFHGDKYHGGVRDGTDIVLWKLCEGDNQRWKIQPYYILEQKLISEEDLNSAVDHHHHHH

>  <class assignment>
Condition not met

$$$$
>  <binder>
Sebin2 (Coprinopsis cinerea), A8PE78 (protein) MTTPFYAYCHNVQDDNTWRLGLVFANRSTADEWWRAISEATSSIPITKSITRVTPQYYTHDIRVWNMYNFFVDGNIKSISDKFRGRLFITLEYDRSGRGVSVFPPLHIVDHVSGNWYYIRSKTAPHLFWFYDETRNAIYASKEKRTRFKVSIRNPSPQTPKDAIMINSDDVVIHIKESLYVGVDSYLGHIIPTRAYRTFKFGELEGGAIAGIEVAENAEERCSSTFDGASLYFVGPDSSSPGEPWELV

>  <class assignment>
Condition not met

$$$$

Turning now to a further binder:
// query glycan array binding signal (z-score) >= 5 for Mermaid2 (Stilbonema majum) (protein) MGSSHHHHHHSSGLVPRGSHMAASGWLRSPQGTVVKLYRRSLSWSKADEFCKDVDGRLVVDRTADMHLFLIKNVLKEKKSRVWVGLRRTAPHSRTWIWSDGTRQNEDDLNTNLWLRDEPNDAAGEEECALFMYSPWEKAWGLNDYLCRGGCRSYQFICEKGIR ?
// result Condition met
